assay: Half life in PBS buffer at pH 7.4 by RP-HPLC method; type: ADME
Measure name: half-life (min)

[
  {
    "Smiles": "Cl.NCCCOc1cc2ccccc2cc1C(=O)Nc1ccc(Cl)cc1OC(=O)c1cc2ccccc2cc1OCCCN",
    "Recorded value": 27.3
  }
]

###

experiment: Inhibition of CREB (unknown origin) assessed as reduction in KIX-KID interaction after 20 to 24 hrs by renilla luciferase complementation assay; parameters: species or system Homo sapiens
We begin with a simple list: items and their reported IC50.

[
  {
    "Smiles": "COc1cc2ccccc2cc1C(=O)Nc1ccc(Cl)cc1OC(=O)c1cc2ccccc2cc1OC",
    "Output unit": "µM",
    "Limit operator": "=",
    "IC50": 0.17
  },
  {
    "Smiles": "COc1cc2ccccc2cc1C(=O)Nc1ccc(Cl)cc1O",
    "Output unit": "µM",
    "Limit operator": ">",
    "IC50": 50
  },
  {
    "Smiles": "NCCCOc1cc2ccccc2cc1C(=O)Nc1ccc(Cl)cc1O",
    "Output unit": "µM",
    "Limit operator": ">",
    "IC50": 50
  },
  {
    "Smiles": "O=C(Nc1ccc(Cl)cc1)c1cc2ccccc2cc1O",
    "Output unit": "µM",
    "Limit operator": "=",
    "IC50": 2.9
  },
  {
    "Smiles": "Cl.NCCCOc1cc2ccccc2cc1C(=O)NCCCOc1cc2ccccc2cc1C(=O)Nc1ccc(Cl)cc1O",
    "Output unit": "µM",
    "Limit operator": "=",
    "IC50": 19.7
  },
  {
    "Smiles": "Cl.NCCCOc1cc2ccccc2cc1C(=O)Nc1ccc(Cl)cc1OC(=O)c1cc2ccccc2cc1OCCCN",
    "Output unit": "µM",
    "Limit operator": "=",
    "IC50": 4.4
  }
]
